Recorded values, source patent US20110065632A1.

This listing pairs compounds with measured Ki.
System under test: hsst5 (Homo sapiens, UniProt P35346)
Construct: expressed in transfected cells
Sequence (P35346 whole entry): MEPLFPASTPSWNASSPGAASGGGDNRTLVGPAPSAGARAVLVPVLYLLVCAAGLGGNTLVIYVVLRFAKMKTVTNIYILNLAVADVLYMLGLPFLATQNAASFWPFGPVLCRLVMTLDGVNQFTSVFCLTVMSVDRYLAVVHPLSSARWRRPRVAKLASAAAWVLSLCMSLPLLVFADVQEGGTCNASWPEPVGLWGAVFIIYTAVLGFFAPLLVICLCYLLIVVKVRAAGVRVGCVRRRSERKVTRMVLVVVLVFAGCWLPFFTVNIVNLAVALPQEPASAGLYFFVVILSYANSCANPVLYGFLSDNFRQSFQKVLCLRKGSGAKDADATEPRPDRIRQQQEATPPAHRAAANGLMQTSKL
Method notes: Somatostatin receptor radioligand binding assay, hsst5
Reported conditions: CHO-K1 membranes, [125I-Tyr11]SS-14; read-out: hsst5 Ki
Bridge positions count the residues as written; N and C are the ends. Square brackets hold non-standard residues; d marks the D form. Peptide text beside a SMILES is read from it. * marks the point of attachment. X1 = CCCN1C[C@H](CSCC(=O)*)C[C@@H]2c3cccc4[nH]cc(c34)C[C@H]21; Abu = CC[C@H](N)C(=O)O
Give the number; nM is assumed, so skip it.

Please review the following examples before continuing.
| Compound | Ki / nM |
| --- | --- |
| CCCN1C[C@H](CSCC(=O)NCCCC[C@H](NC(C)=O)C(=O)N[C@H](Cc2ccc(O)cc2)C(=O)N[C@H](Cc2ccc(O)cc2)C(=O)N[C@H]2CSSC[C@@H](C(=O)N[C@H](C(N)=O)[C@@H](C)O)NC(=O)[C@H](CC)NC(=O)[C@H](CCCCN)NC(=O)[C@@H](Cc3c[nH]c4ccccc34)NC(=O)[C@H](Cc3ccc(O)cc3)NC2=O)C[C@@H]2c3cccc4[nH]cc(c34)C[C@H]21 [Example 11] (Ac-K(X1)[dY][dY]CY[dW]K[Abu]CT-NH2; disulfide 4-9) | 8.91 |
| CCCN1C[C@H](CSCC(=O)NCCCC[C@@H](NC(C)=O)C(=O)N[C@H](Cc2ccccc2)C(=O)N[C@H]2CSSC[C@@H](C(=O)N[C@H](C(N)=O)[C@@H](C)O)NC(=O)[C@H]([C@@H](C)O)NC(=O)[C@H](CCCCN)NC(=O)[C@@H](Cc3c[nH]c4ccccc34)NC(=O)[C@H](Cc3ccc(O)c(I)c3)NC2=O)C[C@@H]2c3cccc4[nH]cc(c34)C[C@H]21 | 2.68 |

Would you kindly share the measured Ki for `CC[C@@H]1NC(=O)[C@H](CCCCN)NC(=O)[C@@H](Cc2c[nH]c3ccccc23)NC(=O)[C@H](Cc2ccc(O)cc2)NC(=O)[C@@H](NC(=O)[C@@H](Cc2ccccc2)NC(=O)CSC[C@@H]2C[C@@H]3c4cccc5[nH]cc(c45)C[C@H]3N(C)C2)CSSC[C@@H](C(=O)N[C@H](C(N)=O)[C@@H](C)O)NC1=O` ?
15.7
